Data origin, for the record: patent US20250171495A1

System: hepsin (Homo sapiens)
Construct: purchased R&D Systems 4776-SE-010
Sequence (P05981 163-417 limits assumed): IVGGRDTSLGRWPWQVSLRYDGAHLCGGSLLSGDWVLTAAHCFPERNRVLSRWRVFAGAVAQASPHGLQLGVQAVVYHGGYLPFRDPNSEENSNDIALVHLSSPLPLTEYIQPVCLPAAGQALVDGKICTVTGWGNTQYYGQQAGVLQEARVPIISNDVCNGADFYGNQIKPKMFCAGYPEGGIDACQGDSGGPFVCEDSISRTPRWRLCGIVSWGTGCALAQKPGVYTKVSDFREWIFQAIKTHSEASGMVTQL
Sequence (P05981 1-162 partner limits assumed): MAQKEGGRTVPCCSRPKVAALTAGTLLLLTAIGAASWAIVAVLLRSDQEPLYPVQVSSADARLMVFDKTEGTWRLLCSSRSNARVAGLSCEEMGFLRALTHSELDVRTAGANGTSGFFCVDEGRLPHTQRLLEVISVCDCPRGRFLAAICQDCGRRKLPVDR
Assay notes: Fluorogenic kinetic enzyme inhibitor assay, hepsin
Format: biochemical
Measurement parameters: read-out: Hepsin IC50
Measured quantity: IC50 (nM)
Give bare numbers, in nM.

Below, each entry is followed by its recorded IC50 result.
N=C(N)NCCC[C@H](NC(=O)[C@H](Cc1ccc(F)cc1)NC(=O)OCC1c2ccccc2-c2ccccc21)C(=O)c1nc2ccccc2s1    1130
CC(=O)N[C@@H](CO)C(=O)NCc1ccc(CC(=O)N[C@@H](CC(C)C)C(=O)N[C@@H](CCCNC(=N)N)C(=O)c2nc3ccccc3s2)cc1    2.81

Query molecule follows.
For this molecule ( CC(=O)N[C@H](Cc1c[nH]c2ccccc12)C(=O)N[C@@H](Cc1ccccc1)C(=O)N[C@@H](CCCNC(=N)N)C(=O)c1nc2ccccc2s1 ), measured IC50 is 1.1

###

System: matriptase (Homo sapiens, UniProt Q9Y5Y6)
Construct: purchased R&D Systems 3946-SEB-010
Sequence (Q9Y5Y6 615-855 limits assumed): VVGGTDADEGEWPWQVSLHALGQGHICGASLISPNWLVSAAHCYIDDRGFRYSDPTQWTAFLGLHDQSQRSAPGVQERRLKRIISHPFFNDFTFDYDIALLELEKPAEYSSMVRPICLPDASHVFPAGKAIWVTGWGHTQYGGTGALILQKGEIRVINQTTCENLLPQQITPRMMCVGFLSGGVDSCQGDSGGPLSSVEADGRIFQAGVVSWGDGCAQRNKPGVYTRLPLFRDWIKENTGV
Assay notes: Fluorogenic kinetic enzyme inhibitor assay, matriptase
Type: biochemical
Measurement parameters: read-out: Matriptase IC50
Provide the reported pIC50 of each item.
One number for each entry, as −log10 of the molar value.

Below, each entry is followed by its recorded pIC50 result.
N=C(N)NCCC[C@H](NC(=O)[C@H](Cc1ccccc1)NC(=O)[C@H](CCC(N)=O)NS(=O)(=O)Cc1ccccc1)C(=O)c1nc2ccccc2s1    8.83
N=C(N)NCCC[C@H](NC(=O)[C@H](Cc1ccccc1)NC(=O)[C@H](CCC(N)=O)N1CCCCC1)C(=O)c1nc2ccccc2s1    7.38

Query compound follows.
For this compound ( CC(=O)N[C@H]1Cc2ccc(cc2)Oc2cccc(c2)C[C@@H](C(=O)N[C@@H](CCCNC(=N)N)C(=O)c2nc3ccccc3s2)NC(=O)[C@H](CC(C)C)NC1=O [VD5064B] ), measured pIC50 is 7.05

###

System: matriptase (Homo sapiens)
Construct: purchased R&D Systems 3946-SEB-010
Assay notes: Fluorogenic kinetic enzyme inhibitor assay, matriptase
Assay type: biochemical
Measurement parameters: read-out: Matriptase IC50
Measured quantity: pIC50
Answers are plain numbers, as −log10 of the molar value.

Below, each entry is followed by its recorded pIC50 result.
N=C(N)NCCC[C@H](NC(=O)[C@H](Cc1ccccc1)NC(=O)[C@H](CCC(N)=O)NS(=O)(=O)c1ccccc1)C(=O)c1nc2ccccc2s1 [MF1101]    8.54
CC(=O)N[C@@H](CC(C)C)C(=O)N[C@@H](CC(C)C)C(=O)N[C@@H](CCCNC(=N)N)C(=O)c1nccs1 [ZFH6201-1]    7.25
N=C(N)NCCC[C@H](NC(=O)[C@H](Cc1ccccc1)NC(=O)[C@H](CCC(N)=O)NC(=O)OCc1ccccc1)C(=O)c1nc2ccccc2s1 [ZFH9141]    8.99

Would you mind giving pIC50 for every molecule in the list below?
1. CC(=O)N[C@H]1CC(=O)NCCCC[C@@H](C(=O)N[C@@H](CCCNC(=N)N)C(=O)c2nc3ccccc3s2)NC(=O)[C@H](CC(C)C)NC1=O [VD2173, Ac-Cyclo(DLK)—R-ketobenzothiazole]
2. CC(=O)N1CCC[C@H]1C(=O)N[C@@H](CCC(N)=O)C(=O)N[C@@H](Cc1ccccc1)C(=O)N[C@@H](CCCNC(=N)N)C(=O)c1nc2ccccc2s1 [MM3123]
3. N=C(N)NCCC[C@H](NC(=O)[C@H](Cc1ccc(F)cc1)NC(=O)OCC1c2ccccc2-c2ccccc21)C(=O)c1nc2ccccc2s1 [MF1131]
4. CSCC[C@@H]1NC(=O)[C@@H](NC(C)=O)CC(=O)NCCCC[C@@H](C(=O)N[C@@H](CCCNC(=N)N)C(=O)c2nc3ccccc3s2)NC1=O [VD3173]
5. N=C(N)NCCC[C@H](NC(=O)[C@H](Cc1cn(Cc2ccccc2)cn1)NC(=O)OCC1c2ccccc2-c2ccccc21)C(=O)c1nc2ccccc2s1 [MF1158]
6. CC(=O)N[C@@H](Cc1c[nH]c2ccccc12)C(=O)N[C@@H](Cc1ccccc1)C(=O)N[C@@H](CCCNC(=N)N)C(=O)c1nc2ccc(C(=O)O)cc2s1 [PK-1-103]
7. CC(=O)N[C@@H](CO)C(=O)NCc1cccc(CC(=O)N[C@@H](CC(C)C)C(=O)N[C@H](CCCNC(=N)N)C(=O)c2nc3ccccc3s2)c1 [MM1132-1]
8. N=C(N)NCCC[C@H](NC(=O)[C@H](Cc1ccccc1)NC(=O)[C@H](CCC(N)=O)NCc1ccccc1)C(=O)c1nc2ccccc2s1 [CA1022-2]

Result:
1: 8.59; 2: 9.50; 3: 6.01; 4: 9.00; 5: 7.40; 6: 7.31; 7: 6.38; 8: 8.64

Would you mind giving pIC50 for every molecule in the list below?
1. N=C(N)NCCC[C@H](NC(=O)[C@H](Cc1cccc(F)c1)NC(=O)OCC1c2ccccc2-c2ccccc21)C(=O)c1nc2ccccc2s1 [MF1141]
2. CC(=O)N[C@@H](Cc1c[nH]c2ccccc12)C(=O)N[C@@H](CC(C)C)C(=O)N[C@@H](CCCNC(=N)N)C(=O)c1nc2ccccc2s1 [PK-1-104]
3. CC(=O)N[C@@H](CO)C(=O)NCc1ccc(C(=O)N[C@@H](CC(C)C)C(=O)N[C@@H](CCCNC(=N)N)C(=O)c2nc3ccccc3s2)cc1 [AJS4016]
4. N=C(N)NCCC[C@H](NC(=O)[C@H](Cc1ccccc1)NC(=O)[C@H](CCC(N)=O)NC(=O)Cc1ccccc1)C(=O)c1nc2ccccc2s1 [CA1018]

Result:
5.94
7.59
7.99
9.00
